Consider the following IC50 values measured on UniProt P30530.
Sequence (P30530 26-894): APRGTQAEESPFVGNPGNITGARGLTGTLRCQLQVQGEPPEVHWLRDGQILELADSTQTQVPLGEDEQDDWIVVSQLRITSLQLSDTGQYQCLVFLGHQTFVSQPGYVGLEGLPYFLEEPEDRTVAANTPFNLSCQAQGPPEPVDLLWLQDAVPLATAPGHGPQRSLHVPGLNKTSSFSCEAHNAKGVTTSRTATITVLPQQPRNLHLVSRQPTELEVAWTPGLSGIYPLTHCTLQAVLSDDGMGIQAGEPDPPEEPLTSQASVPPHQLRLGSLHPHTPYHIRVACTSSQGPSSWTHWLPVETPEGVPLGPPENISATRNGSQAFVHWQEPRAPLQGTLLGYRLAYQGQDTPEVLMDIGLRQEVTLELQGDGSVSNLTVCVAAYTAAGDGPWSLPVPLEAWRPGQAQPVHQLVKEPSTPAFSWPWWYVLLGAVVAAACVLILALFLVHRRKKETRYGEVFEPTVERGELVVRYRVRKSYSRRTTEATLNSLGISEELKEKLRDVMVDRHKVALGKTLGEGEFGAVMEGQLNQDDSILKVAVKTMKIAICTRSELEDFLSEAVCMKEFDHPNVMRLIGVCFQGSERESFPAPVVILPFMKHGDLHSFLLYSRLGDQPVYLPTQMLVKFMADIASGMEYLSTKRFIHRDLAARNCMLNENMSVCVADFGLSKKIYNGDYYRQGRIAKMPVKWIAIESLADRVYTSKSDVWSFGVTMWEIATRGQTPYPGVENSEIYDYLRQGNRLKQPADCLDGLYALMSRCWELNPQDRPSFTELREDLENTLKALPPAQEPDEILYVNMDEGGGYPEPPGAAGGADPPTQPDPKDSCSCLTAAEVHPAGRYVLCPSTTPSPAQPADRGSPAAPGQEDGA

See these solved cases before continuing.
molecule	IC50
Cc1nnc(Cn2cc(-c3cc([C@H]4CC[C@H](O)CC4)n4nc(N[C@@H](C)COC(F)F)ncc34)cn2)o1	≤ 0.1 µM
COC[C@H](C)Nc1ncc2c(-c3ccnc(N4CCOCC4)c3)cc([C@H]3CC[C@H](O)CC3)n2n1	≤ 0.1 µM

Find the recorded IC50 belonging to COC[C@H](C)Nc1ncc2c(-c3cnn(CCC#N)c3)cc([C@H]3CC[C@](C)(O)CC3)n2n1 and report it.
≤ 0.1 µM

Find the recorded IC50 belonging to Cc1nnc(Cn2cc(-c3cc([C@H]4CC[C@H](O)CC4)n4nc(N[C@@H](C)CC(F)(F)F)ncc34)cn2)o1 and report it.
≤ 0.1 µM

Find the recorded IC50 belonging to COC[C@H](C)Nc1ncc2c(-c3cnn(C(C)(C)C(=O)N4C[C@@H](C)O[C@H](C)C4)c3)cc([C@H]3CC[C@H](O)CC3)n2n1 and report it.
≤ 0.1 µM
